biological target: Calpain-2 catalytic subunit (Sus scrofa, UniProt P43367); test: m-calpain protease blockers, concentration series – biochemical, fluorogenic peptide substrate, dose response (AID 1420); type: functional
Sequence (P43367 whole entry): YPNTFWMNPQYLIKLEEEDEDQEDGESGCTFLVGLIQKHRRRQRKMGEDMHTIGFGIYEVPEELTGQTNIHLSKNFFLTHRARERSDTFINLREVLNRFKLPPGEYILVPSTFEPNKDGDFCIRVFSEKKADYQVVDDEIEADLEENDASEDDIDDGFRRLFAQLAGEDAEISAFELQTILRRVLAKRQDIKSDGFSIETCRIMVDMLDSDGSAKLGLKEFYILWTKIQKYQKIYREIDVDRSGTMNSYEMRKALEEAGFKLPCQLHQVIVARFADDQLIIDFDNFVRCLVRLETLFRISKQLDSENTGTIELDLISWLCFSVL
measurement-type: IC50

- smiles-text: "Cc1ccc(C(=O)NCCCNc2ccccc2[N+](=O)[O-])cc1"
  measurement-type: "IC50"
  value: "25.2 µM (not active)"
- smiles-text: "Cc1ccsc1C(=O)NCCC(c1ccccc1)c1ccccc1"
  measurement-type: "IC50"
  value: "0.719 µM (not active)"
- smiles-text: "COc1ccc(C(=N)NOC(=O)Cc2ccccc2[N+](=O)[O-])cc1"
  measurement-type: "IC50"
  value: "10.1 µM (not active)"
- smiles-text: "O=C(Cn1cc(C(=O)c2ccco2)c2ccccc21)Nc1ccccc1"
  measurement-type: "IC50"
  value: "3.26 µM (not active)"
- smiles-text: "CCCc1cc(-c2nnc(S)n2Cc2ccccc2)cs1"
  measurement-type: "IC50"
  value: "22.1 µM (not active)"
- smiles-text: "COc1ccc(/C=C/C(=O)NC(=S)Nc2cc3oc4ccccc4c3cc2OC)cc1"
  measurement-type: "IC50"
  value: "> 50 µM (not active)"
- smiles-text: "CC(=O)c1cccc(NC(=O)c2c(F)c(F)c(F)c(F)c2F)c1"
  measurement-type: "IC50"
  value: "17.2 µM (not active)"
- smiles-text: "NS(=O)(=O)c1ccc(NC(=O)COC(=O)C23CC4CC(CC(C4)C2)C3)cc1"
  measurement-type: "IC50"
  value: "3.33 µM (not active)"

----------
Reported EC50 values for the following molecules.
assay: alpha-synuclein stem-loop luciferase translation blockers – H4 neuroglioma cells, luminescence, confirmation (AID 1988); type: functional, cell-based
Active and inactive are the calls of the source.

- smiles-text: "O=C(Nc1ccc(F)cc1)C1CCN(c2ncnc3c2nc2n3CCCCC2)CC1"
  EC50: "15.8 µM (active)"
- smiles-text: "Oc1ccccc1/C=N/Nc1nccnc1Cl"
  EC50: "4.65 µM (active)"
- smiles-text: "CC(=C/c1ccccc1)/C=N/n1cnnc1"
  EC50: "13.5 µM (active)"
- smiles-text: "Cc1ccc(C)c(Nc2nc3ccc(C)cc3n3cnnc23)c1"
  EC50: "> 120 µM (not active)"

----------
Estrogen receptor beta (Homo sapiens, UniProt Q92731): recorded IC50 for assorted compounds;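 further: recombinant ER-beta bound to coactivator SRC1 peptide in presence of estradiol agonist; inhibitors block coactivator peptide binding and lower the FRET signal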
Sequence (Q92731 whole entry): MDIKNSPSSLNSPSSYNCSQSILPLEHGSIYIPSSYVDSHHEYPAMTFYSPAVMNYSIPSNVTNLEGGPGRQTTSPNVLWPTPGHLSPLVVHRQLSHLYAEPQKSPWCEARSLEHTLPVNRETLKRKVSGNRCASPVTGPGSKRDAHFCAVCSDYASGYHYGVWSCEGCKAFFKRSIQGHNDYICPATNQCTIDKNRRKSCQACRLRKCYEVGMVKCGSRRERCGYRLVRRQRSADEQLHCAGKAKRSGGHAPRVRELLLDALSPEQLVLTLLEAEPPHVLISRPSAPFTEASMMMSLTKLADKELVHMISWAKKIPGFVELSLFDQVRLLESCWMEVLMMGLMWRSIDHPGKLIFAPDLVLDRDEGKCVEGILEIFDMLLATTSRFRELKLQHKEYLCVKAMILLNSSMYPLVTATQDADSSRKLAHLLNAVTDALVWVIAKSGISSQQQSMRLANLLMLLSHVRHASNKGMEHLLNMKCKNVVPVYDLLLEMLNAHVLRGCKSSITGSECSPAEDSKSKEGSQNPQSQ
Calls of active or inactive are those of the source.

- smiles-text: "N#Cc1cc2c(=O)n3ccccc3nc2n(CCCn2ccnc2)c1=N"
  IC50: "> 50 µM (not active)"
- smiles-text: "CCOC(=O)Cc1csc(NC(=O)Cc2cccs2)n1"
  IC50: "5.81 µM (active)"
- smiles-text: "COc1cc2c3c(c1)/C(=C1/SC(NC(C)=O)=NC1=O)C(=O)N3C(C)(C)C=C2C"
  IC50: "3.37 µM (active)"
- smiles-text: "Cc1[nH]n(-c2ccccc2)c(=O)c1Sc1ccc(Cl)cc1"
  IC50: "> 50 µM (not active)"
- smiles-text: "CC(=O)Nc1ccc(/N=C/c2nc(-c3ccc(C)cc3)oc2O)cc1"
  IC50: "> 50 µM (not active)"
- smiles-text: "Oc1ccc(-c2nc(-c3ccc(O)c(O)c3)cs2)cc1"
  IC50: "4.96 µM (active)"

----------
assay: Trypanosoma cruzi growth suppression in host cells – NIH3T3 host cells, beta-gal luminescence, confirmation (AID 2044); format: functional, cell-based;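 further: intracellular parasites grown in NIH/3T3 mouse fibroblasts as host cells; luminescent beta-galactosidase reporter signal from transgenic T. cruzi replicating inside host cells; inhibitors lower the luminescence signal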
Active and inactive are the calls of the source.
Reported EC50 values for the following molecules.

- molecule: "OC(COc1ccc2ccccc2c1Br)Cn1ccnc1 (stereo unspecified)"
  EC50: "0.501 µM (active)"
- molecule: "C=CCN(C(=O)CSc1nc2c(sc3ccccc32)c(=O)n1CCN(CC)CC)c1ccccc1"
  EC50: "0.606 µM (active)"
- molecule: "CN1CCc2c(C#N)c(N3CCCCC3)nc(NCc3ccccc3)c2C1"
  EC50: "0.639 µM (active)"
- molecule: "CSc1cccc(NC(=S)N(CCCN2CCCC2)Cc2cccn2Cc2ccc(Cl)cc2)c1"
  EC50: "2.25 µM (active)"
- molecule: "CCOc1cc(CNCCSc2nnnn2C)cc(Br)c1OCc1ccccc1F"
  EC50: "2.13 µM (active)"
- molecule: "COc1ccccc1NS(=O)(=O)c1cc(NC(=O)Nc2ccc(Cl)cc2Cl)ccc1N1CCCCC1"
  EC50: "1.58 µM (active)"

// data source = ChEMBL document CHEMBL1201862
